System: MDR1
method summary: MDCK-MDR1 permeability assay
Assay type: in vitro ADME
details: dog, MDCK-MDR1, Papp (basolateral to apical) divided by Papp (apical to basolateral), MDCK-MDR1 cells, 3 μM; read-out: Efflux ratio (ER)
experimental endpoint: efflux ratio at 2 h, 3 μM

>  <compound>
CS(=O)(=O)N[C@H]1CCCN2C(=O)CCc3ccccc3C3CCC(CC3)OCC12 (some centres unmarked)

>  <reported measurement>
15

$$$$
>  <compound>
CS(=O)(=O)N[C@@H]1CCCN2C(=O)COc3ccncc3[C@H]3CC[C@H](CC3)OC[C@H]12 (racemic)

>  <reported measurement>
12

$$$$
>  <compound>
CC1(C)CN2CCC[C@H](NS(C)(=O)=O)C2COC2CCC(CC2)c2ccccc2O1 (some centres unmarked)

>  <reported measurement>
1.9

$$$$
>  <compound>
CS(=O)(=O)N[C@H]1CCCN2C(=O)COc3c(F)cccc3C3CCC(CC3)OCC12 (some centres unmarked)

>  <reported measurement>
5.5

$$$$
>  <compound>
CS(=O)(=O)N[C@H]1CCCN2C(=O)COc3ccc(Br)cc3C3CCC(CC3)OCC12 (some centres unmarked)

>  <reported measurement>
51

$$$$
>  <compound>
C[C@H]1Oc2ccccc2C2CCC(CC2)OCC2[C@@H](NS(C)(=O)=O)CCCN2C1=O (some centres unmarked)

>  <reported measurement>
18

$$$$
>  <compound>
C[C@@H]1Oc2ccccc2C2CCC(CC2)OCC2[C@@H](NS(C)(=O)=O)CCCN2C1=O (some centres unmarked)

>  <reported measurement>
27

$$$$
>  <compound>
CS(=O)(=O)N[C@H]1CCCN2C(=O)CCOc3ccccc3C3CCC(CC3)OCC12 (some centres unmarked)

>  <reported measurement>
> 100

$$$$

----------
Test system: human hepatocytes
method summary: Hepatocytes stability assay (human hepatocytes)
Type: in vitro ADME
details: scaled hepatic clearance divided by liver blood flow, fu assumed unity
Decide using Extraction Ratio (ER): a value greater than or equal to 0.7 is satisfied, a smaller one is not satisfied.

>  <molecule>
C[C@H]1COc2ccccc2C2CCC(CC2)OCC2[C@@H](NS(C)(=O)=O)CCCN21 (stereo partly drawn)

>  <classification>
satisfied

$$$$
>  <molecule>
CS(=O)(=O)N[C@H]1CCCN2CCOc3c(F)cccc3C3CCC(CC3)OCC12 (stereo partly drawn)

>  <classification>
satisfied

$$$$
>  <molecule>
CS(=O)(=O)N[C@@H]1CCCN2C(=O)COc3cccc(F)c3[C@H]3CC[C@H](CC3)OC[C@H]12 (racemic)

>  <classification>
not satisfied

$$$$
>  <molecule>
CC1(C)CN2CCC[C@H](NS(C)(=O)=O)C2COC2CCC(CC2)c2ccccc2O1 (stereo partly drawn)

>  <classification>
satisfied

$$$$
>  <molecule>
CS(=O)(=O)N[C@H]1CCCN2C(=O)COc3ccccc3C3CC[C@H](CO3)OCC12 (stereo partly drawn)

>  <classification>
not satisfied

$$$$
>  <molecule>
CS(=O)(=O)N[C@H]1CCCN2C(=O)COc3ccccc3C3CC[C@@H](CO3)OCC12 (stereo partly drawn)

>  <classification>
not satisfied

$$$$
>  <molecule>
CS(=O)(=O)N[C@H]1CCCN2CCCOc3ccccc3C3CCC(CC3)OCC12 (stereo partly drawn)

>  <classification>
satisfied

$$$$
>  <molecule>
CC1(C)Oc2ccccc2C2CCC(CC2)OCC2[C@@H](NS(C)(=O)=O)CCCN2C1=O (stereo partly drawn)

>  <classification>
satisfied

$$$$
>  <molecule>
CS(=O)(=O)N[C@H]1CCCN2C(=O)COc3nccnc3C3CCC(CC3)OCC12 (stereo partly drawn)

>  <classification>
not satisfied

$$$$
>  <molecule>
CS(=O)(=O)N[C@H]1CCN2C(=O)COc3ncccc3C3CCC(CC3)OCC12 (stereo partly drawn)

>  <classification>
satisfied

$$$$
>  <molecule>
CS(=O)(=O)N[C@H]1CCCN2C(=O)COc3ccccc3C3CCC(CC3)OCC12 (stereo partly drawn)

>  <classification>
not satisfied

$$$$
>  <molecule>
CS(=O)(=O)N[C@H]1CCCN2C(=O)COc3c(F)cccc3C3CCC(CC3)OCC12 (stereo partly drawn)

>  <classification>
satisfied

$$$$
>  <molecule>
CS(=O)(=O)N[C@H]1CCN2C(=O)C(F)(F)Oc3ccccc3C3CCC(CC3)OCC12 (stereo partly drawn)

>  <classification>
satisfied

$$$$
>  <molecule>
C[C@@H]1COc2ccccc2C2CCC(CC2)OCC2[C@@H](NS(C)(=O)=O)CCCN21 (stereo partly drawn)

>  <classification>
satisfied

$$$$
>  <molecule>
C[C@H]1CN2CCC[C@H](NS(C)(=O)=O)C2COC2CCC(CC2)c2ccccc2O1 (stereo partly drawn)

>  <classification>
satisfied

$$$$
>  <molecule>
CS(=O)(=O)N[C@H]1CCCN2C(=O)COc3ncccc3C3CCC(CC3)OCC12 (stereo partly drawn)

>  <classification>
not satisfied

$$$$
>  <molecule>
CS(=O)(=O)N[C@H]1CCCN2C(=O)C(F)(F)Oc3ccccc3C3CCC(CC3)OCC12 (stereo partly drawn)

>  <classification>
satisfied

$$$$

----------
method summary: Hepatocytes stability assay (human hepatocytes)
Assay type: in vitro ADME
details: both sexes, cryopreserved hepatocytes, 1 μM test compound, 1×10^6 cell/mL, 37 degrees C, read-out: CLint (μL/min/million cells)
Overview of reported hepatocyte CLint at 1 μM across a group of molecules:

>  <molecule>
CS(=O)(=O)N[C@H]1CCN2C(=O)C(F)(F)Oc3c(F)cc(F)cc3C3CCC(CC3)OCC12 (some centres unmarked)

>  <units of measure>
µL/min/1e6 cells

>  <comparative sign>
=

>  <hepatocyte CLint at 1 μM>
56

$$$$
>  <molecule>
CS(=O)(=O)N[C@H]1CCCN2C(=O)COc3nnccc3C3CCC(CC3)OCC12 (some centres unmarked)

>  <units of measure>
µL/min/1e6 cells

>  <comparative sign>
<

>  <hepatocyte CLint at 1 μM>
1.9

$$$$
>  <molecule>
CS(=O)(=O)N[C@H]1CCCN2C(=O)COc3ncc(F)cc3C3CCC(CC3)OCC12 (some centres unmarked)

>  <units of measure>
µL/min/1e6 cells

>  <comparative sign>
=

>  <hepatocyte CLint at 1 μM>
9

$$$$
>  <molecule>
CC1(C)CN2CCC[C@H](NS(C)(=O)=O)C2COC2CCC(CC2)c2ccccc2O1 (some centres unmarked)

>  <units of measure>
µL/min/1e6 cells

>  <comparative sign>
=

>  <hepatocyte CLint at 1 μM>
65

$$$$
>  <molecule>
C[C@@H]1Oc2ccccc2C2CCC(CC2)OCC2[C@@H](NS(C)(=O)=O)CCCN2C1=O (some centres unmarked)

>  <units of measure>
µL/min/1e6 cells

>  <comparative sign>
=

>  <hepatocyte CLint at 1 μM>
30

$$$$
>  <molecule>
CS(=O)(=O)N[C@H]1CCCN2C(=O)CCc3ccccc3C3CCC(CC3)OCC12 (some centres unmarked)

>  <units of measure>
µL/min/1e6 cells

>  <comparative sign>
=

>  <hepatocyte CLint at 1 μM>
8.3

$$$$
>  <molecule>
CS(=O)(=O)N[C@H]1CCCN2C(=O)CCCOc3ccccc3C3CCC(CC3)OCC12 (some centres unmarked)

>  <units of measure>
µL/min/1e6 cells

>  <comparative sign>
=

>  <hepatocyte CLint at 1 μM>
28

$$$$
>  <molecule>
C[C@@H]1COc2ccccc2C2CCC(CC2)OCC2[C@@H](NS(C)(=O)=O)CCCN21 (some centres unmarked)

>  <units of measure>
µL/min/1e6 cells

>  <comparative sign>
=

>  <hepatocyte CLint at 1 μM>
40

$$$$

----------
Overview of reported Extraction Ratio (ER) across a group of molecules:
Test system: human hepatocytes
method summary: Hepatocytes stability assay (human hepatocytes)
Type: in vitro ADME
details: scaled hepatic clearance divided by liver blood flow, fu assumed unity
experimental endpoint: Extraction Ratio (ER)

>  <molecule>
COC(=O)N1CCC[C@H](NS(C)(=O)=O)[C@@H]1CO[C@H]1CC[C@@H](c2ccccc2)CC1 [reference compound]

>  <comparative sign>
=

>  <reported measurement>
0.88

$$$$
>  <molecule>
CS(=O)(=O)N[C@H]1CCN2CCOc3ccccc3C3CCC(CC3)OCC12 (stereo partly shown)

>  <comparative sign>
=

>  <reported measurement>
0.88

$$$$
>  <molecule>
CS(=O)(=O)N[C@H]1CCCN2C(=O)COc3nnccc3C3CCC(CC3)OCC12 (stereo partly shown)

>  <comparative sign>
<

>  <reported measurement>
0.22

$$$$
>  <molecule>
CS(=O)(=O)N[C@@H]1CCCN2C(=O)COc3cnccc3[C@H]3CC[C@H](CC3)OC[C@H]12 (racemic)

>  <comparative sign>
=

>  <reported measurement>
0.31

$$$$

----------
Tested on: MDR1
method summary: MDCK-MDR1 permeability assay
Type: in vitro ADME
details: dog, MDCK-MDR1, Papp (basolateral to apical) divided by Papp (apical to basolateral), MDCK-MDR1 cells, 3 μM; read-out: Efflux ratio (ER)
experimental endpoint: efflux ratio at 2 h, 3 μM

>  <compound>
CS(=O)(=O)N[C@H]1CCCN2C(=O)COc3nnccc3C3CCC(CC3)OCC12 (some centres unmarked)

>  <test system>
MDR1

>  <reported measurement>
5.2

$$$$
>  <compound>
CS(=O)(=O)N[C@H]1CCN2C(=O)COc3ncccc3C3CCC(CC3)OCC12 (some centres unmarked)

>  <test system>
MDR1

>  <reported measurement>
2

$$$$
>  <compound>
CS(=O)(=O)N[C@H]1CCCN2CCOc3ccccc3C3CCC(CC3)OCC12 (some centres unmarked)

>  <test system>
MDR1

>  <reported measurement>
0.66

$$$$
>  <compound>
CS(=O)(=O)N[C@H]1CCN2CCOc3ccccc3C3CCC(CC3)OCC12 (some centres unmarked)

>  <test system>
MDR1

>  <reported measurement>
0.49

$$$$
>  <compound>
C[C@@H]1COc2ccccc2C2CCC(CC2)OCC2[C@@H](NS(C)(=O)=O)CCCN21 (some centres unmarked)

>  <test system>
MDR1

>  <reported measurement>
0.75

$$$$
